Target: CCK-B receptors (CHO-CCK) (Homo sapiens)
Construct: expressed in transfected cells; host or cells: CHO (CHO-CCK model cells)
Sequence (P32239 whole entry): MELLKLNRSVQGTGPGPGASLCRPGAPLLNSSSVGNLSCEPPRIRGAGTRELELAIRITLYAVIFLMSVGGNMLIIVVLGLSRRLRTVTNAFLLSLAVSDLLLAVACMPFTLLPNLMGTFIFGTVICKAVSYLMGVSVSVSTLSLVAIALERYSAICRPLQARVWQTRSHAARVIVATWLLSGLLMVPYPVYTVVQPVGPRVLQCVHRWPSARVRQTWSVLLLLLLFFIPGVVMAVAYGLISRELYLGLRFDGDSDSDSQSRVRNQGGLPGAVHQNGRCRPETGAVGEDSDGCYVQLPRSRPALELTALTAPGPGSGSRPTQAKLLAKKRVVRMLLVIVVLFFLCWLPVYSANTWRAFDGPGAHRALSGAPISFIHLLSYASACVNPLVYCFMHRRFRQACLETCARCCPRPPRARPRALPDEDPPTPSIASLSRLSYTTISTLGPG
Test: Calcium flux (Fluo-8) agonist test on CHO-CCK model cells
Type: cell-based
Settings: compound at 50 nM, CHO-CCK cells
Where a SMILES comes first, the peptide text is derived from it. [ ]: non-standard residue; d: D form. NMeW = CN[C@@H](Cc1c[nH]c2ccccc12)C(=O)O; Phe(3-Br) = N[C@@H](Cc1cccc(Br)c1)C(=O)O; Nle = CCCC[C@H](N)C(=O)O
measure name: % Act-Ave @ 50 nM (%)
Form entry: value (%) — number only.

Query: Which measured % Act-Ave @ 50 nM belongs to CCCC[C@H](NC(=O)[C@H](Cc1c[nH]c2ccccc12)N(C)C(C)=O)C(=O)N[C@@H](CC(=O)O)C(=O)N[C@@H](Cc1cccc(Br)c1)C(N)=O [HT-273, Ac-(N-Me-Trp)-Nle-Asp-Phe(3-Br)-NH2] (Ac-[NMeW][Nle]D[Phe(3-Br)]-NH2) , tested on CCK-B receptors (CHO-CCK) (Homo sapiens)?
Response: 96.54

Query: Which measured % Act-Ave @ 50 nM belongs to CCCC[C@H](NC(C)=O)C(=O)N[C@@H](CC(=O)O)C(=O)N[C@@H](Cc1cccc(Br)c1)C(N)=O [HT-283, Ac-Nle-Asp-Phe(3-Br)-NH2] (Ac-[Nle]-Asp-[Phe(3-Br)]-NH2) , tested on CCK-B receptors (CHO-CCK) (Homo sapiens)?
Response: −0.03

====

Can you tell me Agonistic Activity (%) at 10 μM for the items I'm about to list?
Target: CCK-B receptors (CHO-CCK) (Homo sapiens)
Construct: expressed in transfected cells; host or cells: CHO (CHO-CCK model cells)
Experiment: Calcium flux (Fluo-8) agonist test on CHO-CCK model cells
Type: cell-based
Conditions: compound at 10 μM; percentage of signal of 20 nM CCK8 alone
Form entry: value (%) — number only.

Query: Recorded Agonistic Activity (%) at 10 μM of CS(=O)(=O)CC[C@H](NC(=O)[C@H](N)Cc1c[nH]c2ccccc12)C(=O)N[C@@H](CC(=O)O)C(=O)N[C@@H](Cc1ccccc1)C(N)=O [HT-17, D-Trp-Met(O2)-Asp-Phe-NH2] , please.
Response: 19.12

Query: Recorded Agonistic Activity (%) at 10 μM of Cc1ccc(C[C@H](NC(=O)[C@H](CC(=O)O)NC(=O)[C@H](CC[S+](C)[O-])NC(=O)[C@H](N)Cc2c[nH]c3ccccc23)C(N)=O)cc1 (stereo partly drawn) [HT-47, D-Trp-Met(O)-Asp-Phe(4-Me)-NH2] , please.
Response: 26.99

Query: Recorded Agonistic Activity (%) at 10 μM of COC(=O)C[C@H](NC(=O)[C@H](CC[S+](C)[O-])NC(=O)[C@H](N)Cc1c[nH]c2ccccc12)C(=O)N[C@@H](Cc1cccc(Cl)c1)C(N)=O (stereo partly drawn) [HT-111, D-Trp-Met(O)-Asp(Ome)-Phe(3-Cl)-NH2] , please.
Response: −7.28

Query: Recorded Agonistic Activity (%) at 10 μM of C[S+]([O-])CC[C@H](NC(=O)[C@H](N)Cc1c[nH]c2ccccc12)C(=O)N[C@@H](CC(=O)OCCNc1cccc2c(O)cccc12)C(=O)N[C@@H](Cc1ccc(N=[N+]=[N-])cc1)C(N)=O (stereo partly drawn) [HT-150, D-Trp-Met(O)-Asp(EDANS)-Phe(4-N3)-NH2] , please.
Response: 0.81

Query: Recorded Agonistic Activity (%) at 10 μM of C[S+]([O-])CC[C@H](NC(=O)[C@H](N)Cc1c[nH]c2ccccc12)C(=O)N[C@@H](CC(=O)O)C(=O)N[C@@H](Cc1ccc(I)cc1)C(N)=O (stereo partly drawn) [HT-54, D-Trp-Met(O)-Asp-Phe(4-I)-NH2] , please.
Response: 3.14

Query: Recorded Agonistic Activity (%) at 10 μM of COC(=O)C[C@H](NC(=O)[C@H](CC[S+](C)[O-])NC(=O)[C@H](N)Cc1c[nH]c2ccccc12)C(=O)N[C@@H](Cc1cccc(I)c1)C(N)=O (stereo partly drawn) [HT-113, D-Trp-Met(O)-Asp(Ome)-Phe(3-I)-NH2] , please.
Response: 6.21

Query: Recorded Agonistic Activity (%) at 10 μM of COC(=O)C[C@H](NC(=O)[C@H](CCSC)NC(=O)[C@H](N)Cc1c[nH]c2ccccc12)C(=O)N[C@@H](Cc1ccc(N=[N+]=[N-])cc1)C(N)=O [HT-82, D-Trp-Met-Asp(Ome)-Phe(4-N3)-NH2] , please.
Response: 12.78

Query: Recorded Agonistic Activity (%) at 10 μM of CS(=O)(=O)CC[C@H](NC(=O)[C@H](N)Cc1c[nH]c2ccccc12)C(=O)N[C@@H](CC(=O)O)C(=O)N[C@@H](Cc1ccccc1[N+](=O)[O-])C(N)=O [HT-58, D-Trp-Met(O2)-Asp-Phe(2-NO2)-NH2] , please.
Response: 23.63

Query: Recorded Agonistic Activity (%) at 10 μM of COC(=O)C[C@H](NC(=O)[C@H](CC[S+](C)[O-])NC(=O)[C@H](N)Cc1c[nH]c2ccccc12)C(=O)N[C@@H](Cc1ccc(I)cc1)C(N)=O (stereo partly drawn) [HT-122, D-Trp-Met(O)-Asp(Ome)-Phe(4-I)-NH2] , please.
Response: 5.16

====

Biological target: CCK-B receptors (CHO-CCK) (Homo sapiens)
Construct: expressed in transfected cells; host or cells: CHO (CHO-CCK model cells)
Assay: Calcium flux (Fluo-8) agonist test on CHO-CCK model cells
Type: cell-based
Conditions: CHO-CCK cells, Fluo-8 calcium flux; 100% control = 20 nM CCK8
*1 amine or outer side, *2 acyl side, *3 side chain or, on linkers, in order; H or OH if unused. Where a SMILES comes first, the peptide text is derived from it. [ ]: non-standard residue; d: D form. The star is where a group is joined. dTrp(5-OH) = N[C@H](Cc1c[nH]c2ccc(O)cc12)C(=O)O; dTrp(2-Me) = Cc1[nH]c2ccccc2c1C[C@@H](N)C(=O)O; sY = N[C@@H](Cc1ccc(OS(=O)(=O)O)cc1)C(=O)O; Phe(3-Br) = N[C@@H](Cc1cccc(Br)c1)C(=O)O; dNMeW = CN[C@H](Cc1c[nH]c2ccccc12)C(=O)O; Fmoc = O=C(OCC1c2ccccc2-c2ccccc21)*; Gly(octyl) = CCCCCCCC[C@H](N)C(=O)O; Aad = N[C@@H](CCCC(=O)O)C(=O)O; Ahp(2) = CCCCC[C@H](N)C(=O)O; Suc = O=C(CCC(=O)[*:2])[*:1]; Nle = CCCC[C@H](N)C(=O)O
Assign labels as follows, please: 1 for EC50 below 400 nM; 0 for EC50 equal to or exceeding 400 nM.

Query: Please indicate whether the reported EC50 of CSCC[C@@H]1NC(=O)[C@H](Cc2c[nH]c3ccccc23)NCCC(=O)CNC(=O)CNC(=O)CNC(=O)CNC(=O)[C@H](Cc2cccc(Br)c2)NC(=O)[C@H](CC(=O)O)NC1=O is strictly below 400 nM.
Response: 0

Query: Please indicate whether the reported EC50 of CCCC[C@H](NC(=O)[C@@H](Cc1c[nH]c2ccccc12)N(C)C(=O)CN(C)C(=O)OCC1c2ccccc2-c2ccccc21)C(=O)N[C@@H](CC(=O)O)C(=O)N[C@@H](Cc1cccc(Br)c1)C(N)=O is strictly below 400 nM.
Response: 1

Query: Please indicate whether the reported EC50 of CCCC[C@H](NC(=O)[C@@H](Cc1cn(C)c2ccccc12)NC(C)=O)C(=O)N[C@@H](CCC(=O)O)C(=O)N[C@@H](Cc1cccc(Br)c1)C(N)=O is strictly below 400 nM.
Response: 0

Query: Please indicate whether the reported EC50 of CCCC[C@H](NC(=O)[C@@H](Cc1c[nH]c2ccc(O)cc12)NC(C)=O)C(=O)N[C@@H](CCC(=O)O)C(=O)N[C@@H](Cc1cccc(Br)c1)C(N)=O [HT-240, Ac-(5-HTP)-Nle-Glu-Phe(3-Br)-NH2] (Ac-[dTrp(5-OH)][Nle]E[Phe(3-Br)]-NH2) is strictly below 400 nM.
Response: 0

Query: Please indicate whether the reported EC50 of CCCCCCC[C@@H](NC(C)=O)C(=O)N[C@@H](CCCC)C(=O)N[C@@H](CCC(=O)O)C(=O)N[C@@H](Cc1cccc(Br)c1)C(N)=O is strictly below 400 nM.
Response: 0

Query: Please indicate whether the reported EC50 of CCCCC[C@H](NC(=O)[C@@H](Cc1c[nH]c2ccccc12)N(C)C(=O)OCC1c2ccccc2-c2ccccc21)C(=O)N[C@@H](CC(=O)OC)C(=O)N[C@@H](Cc1cccc(Br)c1)C(N)=O [HT-254] (Fmoc-[dNMeW][Ahp(2)]D(OMe)[Phe(3-Br)]-NH2) is strictly below 400 nM.
Response: 1

Query: Please indicate whether the reported EC50 of CSCC[C@H](NC(=O)[C@@H](Cc1cc2ccccc2[nH]1)NC(=O)[C@@H](N)CCC(=O)O)C(=O)N[C@@H](CC(=O)O)C(=O)N[C@@H](Cc1cccc(Br)c1)C(N)=O is strictly below 400 nM.
Response: 1

Query: Please indicate whether the reported EC50 of CCCC[C@H](NC(=O)[C@@H](Cc1c(C)[nH]c2ccccc12)NC(C)=O)C(=O)N[C@@H](CCCC(=O)O)C(=O)N[C@@H](Cc1cccc(Br)c1)C(N)=O [HT-262, Ac-(2-Me-Trp)-Nle-Aa-Phe(3 Br)-NH2] (Ac-[dTrp(2-Me)][Nle][Aad][Phe(3-Br)]-NH2) is strictly below 400 nM.
Response: 0

Query: Please indicate whether the reported EC50 of CCCC[C@H](NC(=O)[C@@H](Cc1c[nH]c2ccccc12)NC(=O)CNC(=O)CCC(=O)O)C(=O)N[C@@H](CC(=O)O)C(=O)N[C@@H](Cc1cccc(Br)c1)C(N)=O [HT-202, (Suc)-Gly-D-Trp-Nle-Asp-Phe(3-Br)-NH2] (Suc-G[dW][Nle]D[Phe(3-Br)]-NH2) is strictly below 400 nM.
Response: 1

Query: Please indicate whether the reported EC50 of CSCC[C@H](NC(=O)[C@@H](Cc1cc2ccccc2[nH]1)NC(=O)[C@@]1(O)C[C@@H](O)[C@H](NC(C)=O)C([C@@H](O)[C@@H](O)CO)O1)C(=O)N[C@@H](CC(=O)O)C(=O)N[C@@H](Cc1cccc(Br)c1)C(N)=O (stereo partly drawn) is strictly below 400 nM.
Response: 1

Query: Please indicate whether the reported EC50 of CSCC[C@H](NC(=O)[C@H](Cc1ccc(OS(=O)(=O)O)cc1)NC(=O)[C@H](CC(=O)O)NC(C)=O)C(=O)NCC(=O)N[C@@H](Cc1c[nH]c2ccccc12)C(N)=O [HT-216, Ac-Asp-Tyr(SO3H)-Met-Gly-Trp-NH2] (Ac-D[sY]MGW-NH2) is strictly below 400 nM.
Response: 0

Query: Please indicate whether the reported EC50 of CCCC[C@H](NC(=O)[C@@H](Cc1c[nH]c2ccccc12)N(C)C(=O)CNC(=O)OCC1c2ccccc2-c2ccccc21)C(=O)N[C@@H](CC(=O)O)C(=O)N[C@@H](Cc1cccc(Br)c1)C(N)=O is strictly below 400 nM.
Response: 1

Query: Please indicate whether the reported EC50 of CCCCCCCC[C@H](NC(=O)[C@H](Cc1c[nH]c2ccccc12)NC(C)=O)C(=O)N[C@@H](CC(=O)O)C(=O)N[C@@H](Cc1cccc(Br)c1)C(N)=O [HT-261, Ac-D-Trp-Da-Asp-Phe(3-Br)-NH2] (Ac-W[Gly(octyl)]D[Phe(3-Br)]-NH2) is strictly below 400 nM.
Response: 1

Query: Please indicate whether the reported EC50 of CSCC[C@H](NC(=O)[C@@H](Cc1c[nH]c2ccccc12)NC(=O)[C@H](CCC(=O)O)NC(=O)[C@H](CC(C)C)NC(=O)CNC(=O)[C@H](Cc1c[nH]cn1)NC(=O)[C@H](CO)NC(=O)CNC(=O)[C@H](CCCCN)NC(=O)[C@H](CCCNC(=N)N)NC(=O)[C@H](CCCNC(=N)N)NC(=O)[C@H](Cc1c[nH]cn1)NC(=O)[C@H](CCCCN)NC(=O)[C@@H](NC(C)=O)[C@@H](C)O)C(=O)N[C@@H](CC(=O)O)C(=O)N[C@@H](Cc1cccc(Br)c1)C(N)=O [HT-220] (Ac-TKHRRKGSHGLE[dW]MD[Phe(3-Br)]-NH2) is strictly below 400 nM.
Response: 0

Query: Please indicate whether the reported EC50 of CSCC[C@H](NC(=O)[C@@H](Cc1c[nH]c2ccccc12)NC(C)=O)C(=O)N[C@@H](CC(=O)O)C(=O)N[C@@H](Cc1cccc(Br)c1)C(N)=O is strictly below 400 nM.
Response: 1
